- System: HCT-15 colon
- assay text: NCI tumour cell line growth inhibition, 48 h
metric: TGI (µM)

• CCCCCCCCCCCCCC[n+]1ccc(C(N)=O)cc1 = 49.6
• CN(CCCNC(=O)c1nn(C)c2c1Cc1ccccc1-2)CCCNC(=O)c1nn(C)c2c1Cc1ccccc1-2 = 40.4
• O=C(c1cccnc1)N1N=C(c2ccccc2)CC1(O)c1cc(F)c(Cl)cc1Cl (stereo unspecified) = 93.4
• S=c1nc(N/N=C/c2cccs2)c2cn[nH]c2[nH]1 = 64.1
• COC(=O)C1CC(OC(C)=O)C=C2C(=O)CCC21 (stereo unspecified) = 30.9

====

- System: SNB-75 CNS
- assay text: NCI tumour cell line growth inhibition, 48 h
*1 amine or outer side, *2 acyl side, *3 side chain or, on linkers, in order; H or OH if unused. Where a SMILES comes first, the peptide text is derived from it. Bridges are numbered along the chain shown (N, C = ends). Roman numbers before positions name the chains, in order. [ ]: non-standard residue; d: D form. Actinocin(9to1) = Cc1c2oc3c(C)ccc(C(=O)[*:1])c3nc-2c(C(=O)[*:2])c(N)c1=O; Hyp = O=C(O)[CH]1C[CH](O)CN1; NMeV = CN[CH](C(=O)O)C(C)C; Sar = CNCC(=O)O
metric: TGI

• COC1=C(C)C(=O)C2=C(C1=O)C1C3CC4=C(C(=O)C(OC)=C(C)C4=O)C(CNC(=O)C(C)O)N3C(C#N)C(C2)N1C (stereo unspecified) = 0.0171 µM
• Cc1c2oc3c(C)ccc(C(=O)NC4C(=O)NC(C(C)C)C(=O)N5CC(O)CC5C(=O)N(C)CC(=O)N(C)C(C(C)C)C(=O)OC4C)c3nc-2c(C(=O)NC2C(=O)NC(C(C)C)C(=O)N3CC(O)CC3C(=O)N(C)CC(=O)N(C)C(C(C)C)C(=O)OC2C)c(N)c1=O (stereo unspecified) (I: TV[Hyp][Sar][NMeV] / II: TV[Hyp][Sar][NMeV]; ester I:1-I:C, II:1-II:C; linker I:N-II:N via Actinocin(9to1); configuration not given here) = > 1 µM
• NC(=O)c1cccc(OCC(O)CO)c1 (stereo unspecified) = > 100 µM
• COC1CCC(OC)C(C2(C3CC(OC)CCC3OC)OC(=O)c3ccccc32)C1 (stereo unspecified) = > 100 µM
• O=C(Nc1ccccc1-c1nn(CN2CCNCC2)c(=S)n(CN2CCNCC2)c1=O)C(F)(F)F = 52.9 µM
• CO/N=C(\C([O-])=N\[n+]1cnn(CC(=O)OC(C)(C)C)c1)c1csc(NC(c2ccccc2)(c2ccccc2)c2ccccc2)n1 = > 10 µM

====

Reported TGI values are given for each entry in this list.
- System: SK-MEL-5 melanoma
- assay text: NCI tumour cell line growth inhibition, 48 h
metric: TGI

- C=CCOC(OCC=C)/C(Br)=C/C: > 100 µM
- CCOC(=O)/C=C(\C(=O)OCC)n1cc(Cl)c(=O)n(CC(=O)OCC)c1=O: 29.1 µM
- CN(C)CCCC1(c2ccc(F)cc2)OCc2cc(-c3cc4ccccc4s3)ccc21 (stereo unspecified): 3.05 µM
- Cc1cc2n[n+]3[n-]cc(-c4ccccc4)n3c2cc1[N+](=O)[O-]: > 100 µM
- CCC(CC)(CO)CNc1cc(Cl)nc(N)n1: > 100 µM
- Cc1nc2ccccn2c1NC(=O)NNC(=S)Nc1ccc(F)cc1: > 100 µM
- O=[N+]([O-])c1cc2ccc(N(CCO)CCO)nc2nc1N(CCO)CCO: > 100 µM
- CC(=O)NNc1nc(C)c(C(=O)/C=C/c2ccc(Cl)cc2)s1: > 100 µM
- CNC(=O)SCC(NC(=O)CCC(N)C(=O)O)C(=O)NCC(=O)O (stereo unspecified): > 100 µM
- COC1=CC(=O)C=C(OC)C1=O: 37.5 µM
- CCN(CC)c1ccc(/C=C2\CCc3ccc([N+](=O)[O-])cc3C2=O)cc1: > 100 µM

====

Reported TGI values are given for each entry in this list.
- System: RXF-631 renal
- assay text: NCI tumour cell line growth inhibition, 48 h
metric: TGI

- C/C(CC(=O)Nc1ccccc1C)=N/NS(=O)(=O)c1ccc(C)cc1: > 100 µM
- COC(=O)[C@@H](C)[C@H]1CC[C@@](C)(CCC2=C(C)CC3C=C(C)CCC3C2(C)C)OO1 (stereo partly drawn): 4.63 µM
- NCCNC(=O)c1cccc2cc3ccccc3nc12: 16.7 µM
- O=S(=O)(N=NC=C1c2ccccc2N(O)c2ccccc21)c1ccc(Cl)cc1: > 100 µM
- COc1ccc(C(=O)CC2=Nc3nnc(CCCCCCCc4nnc5n4C(=O)C(CC(=O)c4ccc(OC)cc4)=N5)n3C2=O)cc1: > 100 µM
- CC1=NOC(=O)/C1=C/c1ccc([N+](=O)[O-])cc1: > 100 µM
- O=P(Nc1ccccc1)(Oc1ccccc1)N(CCCl)CCCl (stereo not drawn): > 100 µM
- CO[C@H]1C[C@](C)(O)Cc2cc3c(c(O)c21)C(=O)c1c(O)cc2c(c1C3=O)O[C@@H]1O[C@@]2(C)[C@H](O)[C@@H](N(C)C)[C@@H]1O: 2.71 µM

====

Reported TGI values are given for each entry in this list.
- System: SNB-75 CNS
- assay text: NCI tumour cell line growth inhibition, 48 h
metric: TGI (µM)

* CCCCc1c2cnccc2c(CCCC)c2c1[nH]c1ccccc12 | 23.6
* Clc1ccc2nc(CI)c(CI)nc2c1 | 23.2
* CC(=O)O[C@H]1C[C@@H](OC(C)=O)[C@@](C)(O)[C@@H]2[C@@H](OC(C)=O)[C@@]3(O)[C@H](/C=C(/CO)[C@H]4O[C@H]4[C@@H](OC(C)=O)[C@@]12C)OC(=O)[C@@H]3C | 17.5
* C=C1C(=O)O[C@H]2[C@H]1CC/C(COC(=O)CCCc1c[nH]c3ccccc13)=C\CC[C@@]1(C)O[C@@H]21 | 26.6
* COC1=CC(=O)C=C(OC)C1=O | 55.9

====

- Tested on: RXF 393 renal
- assay text: NCI tumour cell line growth inhibition, 48 h
metric: TGI

* COC(=O)C(=O)C(C(=O)C(=O)Nc1ccccc1OC)c1nc2ccc([N+](=O)[O-])cc2[nH]c1=O (stereo not drawn) | > 100 µM
* C/C(CC(=O)Nc1ccccc1C)=N/NS(=O)(=O)c1ccc(C)cc1 | > 100 µM
* O=CN1N=C(c2cccc(Nc3ccnc4cc(Cl)ccc34)c2)CC1c1ccccc1 (stereo not drawn) | 3.58 µM
* Cc1nc2c(cc1OCc1ccccc1)C(=O)C1=C(C2=O)C2OC(=O)CC2OC1(C)C (stereo not drawn) | 1.64 µM
* CCSc1nc(=S)n(-c2ccccc2)c(C)c1C(C)=O | > 100 µM
* N/N=C(\c1nc2ccc(Cl)cc2[nH]c1=O)C(O)c1ccc(Cl)c(Cl)c1 (stereo not drawn) | > 100 µM
* COC(=O)[C@@H](C)[C@H]1CC[C@@](C)(CCC2=C(C)CC3C=C(C)CCC3C2(C)C)OO1 (stereo partly drawn) | 2.84 µM
* Cc1cc(OCCOCCC(F)(F)P(=O)(O)O)ccc1CCc1cnc2c(N)nc3cc(CCC(=O)O)ccc3c2c1 | > 100 µM

====

- Tested on: UACC-257 melanoma
- assay text: NCI tumour cell line growth inhibition, 48 h
Reported log10 of TGI values are given for each entry in this list.
metric: log10 of TGI (log10 of the value in µM)

- Cc1ccc(-c2cc[n+]3c(n2)oc2ccccc23)cc1: 1.77
- CC(C)=CC(=O)N[C@H]1CC[C@]2(C)C3CC[C@]4(C)C(C(C)N(C)C)=CCC4C3CCC2[C@H]1O (stereo partly specified): 0.75
- CCCCc1c2cnccc2c(CCCC)c2c1[nH]c1ccccc12: 1.56
- CCCCCCCCCCCCCC[n+]1ccc(C(N)=O)cc1: 0.78
- COC(=O)/C(C#N)=C(\N)C(Cl)(Cl)Cl: 1.10
- COc1ccc2c(c1)NC1(CCN(CCCC(=O)c3ccc(F)cc3)CC1)N=N2: 1.66

====

- System: HOP-92 NSCLC
- assay text: NCI tumour cell line growth inhibition, 48 h
Reported TGI values are given for each entry in this list.
metric: TGI

* CCOC1NC(=O)Oc2cc3ccccc3cc21 (stereo not drawn) | 82.8 µM
* COc1cc2c(cc1Oc1c(Oc3c(O)c(OC)cc4c3C(CC(C)C)N(C)CC4)c(OC)cc3c1C(CC(C)C)N(C)CC3)C(CC(C)C)N(C)CC2 (stereo not drawn) | 7.87 µM
* CC(=O)NNc1nc(C)c(C(=O)/C=C/c2ccc(Cl)cc2)s1 | > 100 µM
* Cc1[nH]c(N)nc(=S)c1CCC(=O)O | > 100 µM
* C#C[C@@]1(O)CCCC2=CC3(CC[C@]21C)SCCS3 | > 100 µM
* C=CC(=O)N1C/C(=C\c2ccc([N+](=O)[O-])cc2)C(=O)/C(=C/c2ccc([N+](=O)[O-])cc2)C1 | 2.98 µM
* CNC(=O)SCC(NC(=O)CCC(N)C(=O)O)C(=O)NCC(=O)O (stereo not drawn) | > 100 µM
* CC(C(=O)c1ccccc1)C1(O)C(=O)Nc2ccc(Cl)cc21 (stereo not drawn) | > 100 µM
* Cc1[nH]c2ccccc2c1/C=N/NC(=O)c1cccc(I)c1 | 51.4 µM
* Clc1ccc2nc(CI)c(CI)nc2c1 | 8.3 µM
* COC(=O)C1CCC(=O)N1C(c1cc(OC)c(OC)c(OC)c1)c1cccc2ccccc12 (stereo not drawn) | > 100 µM
* C/C(CC(=O)Nc1ccccc1C)=N/NS(=O)(=O)c1ccc(C)cc1 | > 100 µM
* CC(C)C(=O)c1c(C(F)(F)F)n([O-])c2cc(F)c(F)cc2[n+]1=O | 0.972 µM
* CC(C)c1cccc(O)c(=O)c1 | > 100 µM
* Nc1ccc2ccc(N3CCNCC3)nc2n1 | > 100 µM
* N#CC(C#N)=Cc1ccc(CP(=O)(O)O)cc1 | > 100 µM
* O=C(OC1CN2CCC1CC2)N(c1ccccc1)c1ccccc1 (stereo not drawn) | > 100 µM
* CC1(C)C2CCC1C(=O)[C@@]1(C=CC(=O)CC1)C2 (stereo partly drawn) | > 100 µM
* COC1=C(Cl)C(=O)c2c(O)ccc(O)c2C1=O | 3.61 µM
* CCOC(=O)[C@@]1(C)CC(O)C(=O)N1C (stereo partly drawn) | > 100 µM
* CC(=O)/C=C/C1=C(c2csc3ccccc23)c2ccccc2CC1 | 65.3 µM
* Cc1ccc2nc3cc(C)c(=O)cc-3sc2c1 | > 100 µM
* CC1SC2(CCCCC2)N(NC(=O)CSc2nc3ccc(Cl)cc3c(=O)n2-c2ccccc2)C1=O (stereo not drawn) | 52.5 µM
